tested on: Trypanosoma cruzi; experiment: Trypanosoma cruzi phosphomannomutase and mannose-1-phosphate guanylyltransferase assay; type: functional; design: scale not given: direction of the effect not stated beside the values; details: 10 µM
# Percent Effect listing for each entry below

[
  {
    "compound": "CCN(Cc1cccnc1)CC1CCCO1 (configuration not stated)",
    "Percent Effect / %": -5.88
  },
  {
    "compound": "COc1cccc([C@@H]2CCN(Cc3ccc4ccccc4n3)C[C@H]2O)c1",
    "Percent Effect / %": 4.56
  },
  {
    "compound": "COCCN1C[C@H]2[C@@H](C1)N(C(=O)COc1ccccc1)CC[C@H]2OC",
    "Percent Effect / %": 5.36
  },
  {
    "compound": "CN(Cc1cccnc1)[C@@H]1CN(CC2CC2)[C@@H]2CCCO[C@H]12",
    "Percent Effect / %": -4.05
  },
  {
    "compound": "Cc1cc(CN2C[C@@H]3COC[C@]3(CN(C)C)C2)no1",
    "Percent Effect / %": -3.42
  },
  {
    "compound": "Cc1n[nH]c2c1C(c1ccc(O)c(Cl)c1)SCC(=O)N2 (configuration not stated)",
    "Percent Effect / %": -3.73
  },
  {
    "compound": "CCC(O)CN1CCN(C(=O)Cc2cc(Cl)ccc2OC)CC1 (configuration not stated)",
    "Percent Effect / %": -1.31
  },
  {
    "compound": "Cn1cc(CN2CC[C@H]3CO[C@H](CNc4ncccn4)[C@H]3C2)cn1",
    "Percent Effect / %": 5.02
  },
  {
    "compound": "Cn1cc(C(=O)N2CC[C@@H]3[C@@H]2CCN3Cc2cccnc2)cn1",
    "Percent Effect / %": -2.83
  },
  {
    "compound": "COc1cc(CNCC(O)c2ccc(C)cc2)cc2c1OCCO2 (configuration not stated)",
    "Percent Effect / %": 2.32
  },
  {
    "compound": "Cc1nc(N(C)C)nc2c1COCC21CCN(CC2CC2)C1 (configuration not stated)",
    "Percent Effect / %": -5.86
  },
  {
    "compound": "c1cc(CN2CCO[C@H]3[C@H](OCC4CCCC4)CC[C@@H]32)ccn1",
    "Percent Effect / %": -3.81
  }
]

----------
biological target: Protein translocase subunit SecA (Escherichia coli (strain K12)) (UniProt P10408); assay: Assay to Identify E. coli SecA ATPase Inhibitors; assay type: functional; parameters: scale not given: direction of the effect not stated beside the values; conditions: 30 µM
Sequence (P10408 whole entry): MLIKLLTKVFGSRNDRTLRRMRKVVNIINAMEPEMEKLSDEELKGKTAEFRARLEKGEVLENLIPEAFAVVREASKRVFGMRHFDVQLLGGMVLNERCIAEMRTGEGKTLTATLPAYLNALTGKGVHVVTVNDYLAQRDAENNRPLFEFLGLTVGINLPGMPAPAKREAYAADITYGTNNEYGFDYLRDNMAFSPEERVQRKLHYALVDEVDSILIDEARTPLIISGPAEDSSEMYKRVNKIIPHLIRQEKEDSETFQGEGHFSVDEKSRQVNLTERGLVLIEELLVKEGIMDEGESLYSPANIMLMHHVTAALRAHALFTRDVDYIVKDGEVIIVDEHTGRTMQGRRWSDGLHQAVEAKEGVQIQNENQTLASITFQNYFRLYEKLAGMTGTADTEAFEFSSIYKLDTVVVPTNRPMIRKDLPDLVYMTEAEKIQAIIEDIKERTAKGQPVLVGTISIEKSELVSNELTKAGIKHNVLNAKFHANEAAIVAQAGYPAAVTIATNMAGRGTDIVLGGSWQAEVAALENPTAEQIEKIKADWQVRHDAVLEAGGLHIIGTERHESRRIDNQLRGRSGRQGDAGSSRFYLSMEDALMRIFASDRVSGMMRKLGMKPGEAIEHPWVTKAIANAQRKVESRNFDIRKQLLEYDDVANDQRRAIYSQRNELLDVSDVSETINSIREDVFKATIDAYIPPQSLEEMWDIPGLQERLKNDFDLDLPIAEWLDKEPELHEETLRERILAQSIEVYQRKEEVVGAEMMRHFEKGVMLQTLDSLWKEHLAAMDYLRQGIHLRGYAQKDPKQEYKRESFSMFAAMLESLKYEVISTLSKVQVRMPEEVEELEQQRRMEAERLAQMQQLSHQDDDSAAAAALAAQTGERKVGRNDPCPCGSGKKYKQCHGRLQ
Entries with a potency or affinity are not part of this list.
Quick list: Percent Effect per entry.

[
  {
    "compound": "CCN(CC)C(=O)c1ccc(NC(=O)CNc2ccc(Br)cc2F)cc1",
    "unit name": "%",
    "Percent Effect": -3.06
  },
  {
    "compound": "Cc1noc(C)c1CN1CCO[C@H]2CNC[C@H]21",
    "unit name": "%",
    "Percent Effect": -3.48
  },
  {
    "compound": "CC(Cc1c(F)cccc1F)NC(=O)Nc1cnn(CC(N)=O)c1 (stereo not drawn)",
    "unit name": "%",
    "Percent Effect": -4.08
  },
  {
    "compound": "Cc1cccc(CN2CC[C@@H]3[C@@H]2CCN3C(=O)c2ccno2)n1",
    "unit name": "%",
    "Percent Effect": -0.832
  },
  {
    "compound": "COCCN1CCC2(COCc3cnc(N4CCOCC4)nc32)C1 (stereo not drawn)",
    "unit name": "%",
    "Percent Effect": -9.09
  },
  {
    "compound": "O=C(Cc1ccccc1)N1CCN(Cc2noc(C3CC3)n2)CC1",
    "unit name": "%",
    "Percent Effect": -1.81
  },
  {
    "compound": "c1ccc(CN2C[C@@H]3OCCN(CC4CCCO4)[C@@H]3C2)nc1 (stereo partly drawn)",
    "unit name": "%",
    "Percent Effect": -4.3
  },
  {
    "compound": "CN1C(=O)C2(CCN(CC3CC3)CC2)c2ccccc21",
    "unit name": "%",
    "Percent Effect": -0.0958
  },
  {
    "compound": "Cc1ccccc1CC(=O)N1CCN(C2CCOC2=O)CC1 (stereo not drawn)",
    "unit name": "%",
    "Percent Effect": -3.96
  },
  {
    "compound": "O=C(c1cc(-n2cnnn2)ccc1Cl)N1CCC2(CC1)OCCO2",
    "unit name": "%",
    "Percent Effect": -3.84
  },
  {
    "compound": "c1ccc(CN2C[C@@H]3OCCN(c4ncccn4)[C@@H]3C2)nc1",
    "unit name": "%",
    "Percent Effect": -3.31
  },
  {
    "compound": "COCC(=O)N1C[C@@H]2OCCN(Cc3c(C)noc3C)[C@@H]2C1",
    "unit name": "%",
    "Percent Effect": -1.15
  },
  {
    "compound": "Cn1cc(CN2CC[C@H]3CO[C@H](CNc4ncccn4)[C@H]3C2)cn1",
    "unit name": "%",
    "Percent Effect": -1.24
  },
  {
    "compound": "c1ccc(CN2CCO[C@H]3[C@H](OCCN4CCCC4)CC[C@@H]32)nc1",
    "unit name": "%",
    "Percent Effect": -1.73
  },
  {
    "compound": "O=C1CSC(c2ccsc2)c2c(n(C3CCOCC3)[nH]c2=O)N1 (stereo not drawn)",
    "unit name": "%",
    "Percent Effect": -1.28
  },
  {
    "compound": "O=C(N[C@H]1CN[C@H]2CCCO[C@H]21)c1cscn1",
    "unit name": "%",
    "Percent Effect": 1.11
  },
  {
    "compound": "CCc1ccc(CN2CCN(C)c3ncccc3C2)o1",
    "unit name": "%",
    "Percent Effect": -8.73
  },
  {
    "compound": "Cc1cc(N2CCN3CCCCC3C2)n2nc(C)c(C)c2n1 (stereo not drawn)",
    "unit name": "%",
    "Percent Effect": -1.84
  },
  {
    "compound": "Cc1noc(C)c1CN1CC[C@H]2C[C@@H](c3ccncn3)O[C@@H]2C1",
    "unit name": "%",
    "Percent Effect": -2.74
  },
  {
    "compound": "CN1CCC2(COCc3cnc(N4CCOCC4)nc32)C1 (stereo not drawn)",
    "unit name": "%",
    "Percent Effect": -1.86
  },
  {
    "compound": "c1ccc(OC[C@]23COC[C@H]2CN(Cc2ccoc2)C3)nc1",
    "unit name": "%",
    "Percent Effect": -3.19
  },
  {
    "compound": "CCN(CCc1ccccc1)Cn1nc(C)c2c(C)onc2c1=O",
    "unit name": "%",
    "Percent Effect": -5.66
  },
  {
    "compound": "CCNC(=O)NC(=O)CNC1(c2noc(C)n2)CCCCC1",
    "unit name": "%",
    "Percent Effect": -8.65
  }
]
